# target-entity: T1, Prolyl oligopeptidase B from Galerina marginata (GmPOPB) (Galerina marginata, UniProt H2E7Q8 1-730)
# T1 sequence (looked up): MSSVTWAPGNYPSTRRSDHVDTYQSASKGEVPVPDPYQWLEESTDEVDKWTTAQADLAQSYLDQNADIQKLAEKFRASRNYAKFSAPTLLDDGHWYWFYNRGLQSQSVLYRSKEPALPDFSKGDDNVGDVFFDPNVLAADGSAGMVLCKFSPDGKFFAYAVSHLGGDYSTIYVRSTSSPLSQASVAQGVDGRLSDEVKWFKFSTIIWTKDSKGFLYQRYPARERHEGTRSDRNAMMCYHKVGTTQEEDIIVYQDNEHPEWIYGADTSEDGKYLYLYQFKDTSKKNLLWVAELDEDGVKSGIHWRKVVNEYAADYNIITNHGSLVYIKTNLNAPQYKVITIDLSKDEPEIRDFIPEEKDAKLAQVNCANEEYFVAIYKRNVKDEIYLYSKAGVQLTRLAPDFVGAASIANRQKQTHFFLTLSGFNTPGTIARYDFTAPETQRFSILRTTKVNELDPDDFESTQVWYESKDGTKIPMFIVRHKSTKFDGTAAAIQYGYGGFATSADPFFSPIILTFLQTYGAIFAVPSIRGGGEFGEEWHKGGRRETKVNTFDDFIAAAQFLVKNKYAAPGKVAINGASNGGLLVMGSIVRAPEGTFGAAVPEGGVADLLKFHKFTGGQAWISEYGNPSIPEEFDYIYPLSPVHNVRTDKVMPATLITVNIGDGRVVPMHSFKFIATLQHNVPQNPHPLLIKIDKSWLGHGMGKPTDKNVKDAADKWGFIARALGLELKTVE
# method-description: stopped-flow tryptophan fluorescence; 2 μM GmPOPB, peptide tail 0.5-20 μM, 20 °C, excitation 285 nm, emission above 320 nm; analytical fitting (replots of kobs and of amplitudes against tail concentration)
# run-conditions: both partners purified

[
  {
    "binder": "WTAEHVDQTLASGNDIC [Peptide tail (WTAEHVDQTLASGNDIC)]",
    "Kd [nM]": 322
  }
]
